System: Enterobacter aerogenes ATCC 29751
Test: Antibacterial activity, MIC
Type: cell-based
Details: Klebsiella aerogenes, ATCC29751; ATCC 29751; agar two-fold dilution, 37° C., 20 hours; read-out: MIC
Endpoint: MIC (µg/mL)
Use µg/mL as the unit, but write only the number.

Can you look up the measured MIC of Cc1c(N)nc(SCC2=C(C(=O)[O-])N3C(=O)C(NC(=O)/C(=N\OC(C)(C)C(=O)O)c4csc(N)n4)C3SC2)[n+](C)c1N (stereo not drawn) [Compound I-30] for me?
2

Do the same for C=CC[n+]1c(N)cc(N)nc1SCC1=C(C(=O)[O-])N2C(=O)C(NC(=O)/C(=N\OCC)c3nsc(N)n3)C2SC1 (stereo not drawn) [Compound I-23] please
2

Next compound: CC[n+]1c(N)cc(N)nc1SCC1=C(C(=O)[O-])N2C(=O)C(NC(=O)/C(=N\OC(C)(C)C(=O)O)c3nsc(N)n3)C2SC1 (stereo not drawn) [Compound I-27]
2

Another compound to check: C=CCO/N=C(\C(=O)NC1C(=O)N2C(C(=O)[O-])=C(CSc3nc(N)cc(N)[n+]3C)CSC12)c1csc(N)n1 (stereo not drawn) [Compound I-49]
1

Try this compound next: CC(C)(O/N=C(\C(=O)NC1C(=O)N2C(C(=O)[O-])=C(CSc3nc(N)cc(N)[n+]3-c3ccc(O)cc3)CSC12)c1csc(N)n1)C(=O)O (stereo not drawn) [Compound I-36]
2

Thanks! And C[n+]1c(N)cc(N)nc1SCC1=C(C(=O)[O-])N2C(=O)C(NC(=O)/C(=N\OC(C)(C)C(=O)O)c3nsc(N)n3)C2SC1 (stereo not drawn) [Compound I-26] ?
1

Lookup C=CC[n+]1c(N)cc(N)nc1SCC1=C(C(=O)[O-])N2C(=O)C(NC(=O)/C(=N\OC(C)C(=O)O)c3csc(N)n3)C2SC1 (stereo not drawn) [Compound I-6]
1

What would you report for CC[n+]1c(N)cc(N)nc1SCC1=C(C(=O)[O-])N2C(=O)C(NC(=O)/C(=N\OCC(=O)O)c3csc(N)n3)C2SC1 (stereo not drawn) [Compound I-8] ?
1

---
For the compound CC(C)(O/N=C(\C(=O)NC1C(=O)N2C(C(=O)[O-])=C(CSc3nc(N)cc(N)[n+]3C3CC3)CSC12)c1csc(N)n1)C(=O)O (stereo not drawn) [Compound I-48] , what MIC is on record?
2

Do the same for CCO/N=C(\C(=O)NC1C(=O)N2C(C(=O)[O-])=C(CSc3nc(N)cc(N)[n+]3N)CSC12)c1nsc(N)n1 (stereo not drawn) [Compound I-17] please
0.25

Check Cc1c(N)nc(SCC2=C(C(=O)[O-])N3C(=O)C(NC(=O)/C(=N\OC(C)(C)C(=O)O)c4csc(N)n4)C3SC2)[n+](N)c1N (stereo not drawn) [Compound I-34] too.
1

What do you get for CCc1c(N)nc(SCC2=C(C(=O)[O-])N3C(=O)C(NC(=O)/C(=N\OC(C)(C)C(=O)O)c4csc(N)n4)C3SC2)[n+](C)c1N (stereo not drawn) [Compound I-31] ?
2

###

Experiment: In-vivo absorbency (plasma concentrations & pharmacokinetic parameters)
Parameters: species or system SD rat (male)
Settings: rat, plasma, iv, 20 mg/kg, SD male rat, iv 20 mg/kg; two compartment model; read-out: T1/2 (α)
Text: The blood samples from the femoral vein of the rats were taken every hour after administration, and analyzed by bio-assay(agar well method). Tested animal: SD male Rat (220~340 g)
# key: entry, value: half-life
Only the number, expressed in min, is required.

Worked set:
Returns the measured half-life for the input compound. Input: CCC[n+]1c(N)cc(N)nc1SCC1=C(C(=O)[O-])N2C(=O)C(NC(=O)/C(=N\OC(C)C(=O)O)c3csc(N)n3)C2SC1 (centres unmarked)
4

Param item: CCc1c(N)nc(SCC2=C(C(=O)[O-])N3C(=O)C(NC(=O)/C(=N\OC(C)(C)C(=O)O)c4csc(N)n4)C3SC2)[n+](CC)c1N (centres unmarked)
2

# iterate: CC[n+]1c(N)cc(N)nc1SCC1=C(C(=O)[O-])N2C(=O)C(NC(=O)/C(=N\OCC(=O)O)c3csc(N)n3)C2SC1 (centres unmarked)
6

Same question for C[n+]1c(N)cc(N)nc1SCC1=C(C(=O)[O-])N2C(=O)C(NC(=O)/C(=N\OC(C)(C)C(=O)O)c3csc(N)n3)[C@H]2SC1 (some centres unmarked) please.
3

Same question for CC(O/N=C(\C(=O)NC1C(=O)N2C(C(=O)[O-])=C(CSc3nc(N)cc(N)[n+]3C)CSC12)c1csc(N)n1)C(=O)O (centres unmarked) please.
2

Proceed to the following item.
Look at this compound and give its reported half-life. CCO/N=C(\C(=O)NC1C(=O)N2C(C(=O)[O-])=C(CSc3nc(N)cc(N)[n+]3N)CSC12)c1csc(N)n1 (centres unmarked)
4
